Below: a set of entries, each annotated with reported pIC50.
- targetUnderTest: human recombinant GPR65 (Homo sapiens)
- Construct: host or cells: 1321N1 human astrocytoma cells (1321N1-hrGPR65)
- procedureDetails: Human GPR65 cAMP HTRF antagonist assay
- Assay type: cell-based
- experimentalConditions: 1321N1-hrGPR65 cells, assay pH 7.2, cAMP HTRF; read-out: hGPR65 IC50 (activity class)
pIC50: −log10 of the molar value.

These solved cases illustrate the format of a correct answer.
compound="N#Cc1cc(NC(=O)N2C3CCC2c2ccnc(F)c2C3)ccc1F (racemic) [Compound 165]" targetundertest="human recombinant GPR65 (Homo sapiens)" outcomemeasure=pIC50 result="5.30 to 6.30"
compound="O=C(Nc1ccc(Cl)c(Cl)c1)N1C2CCC1c1cnc(C(F)(F)F)nc1C2 (racemic) [Compound 24]" targetundertest="human recombinant GPR65 (Homo sapiens)" outcomemeasure=pIC50 result="< 5.30"
compound="O=C(Nc1ccc(Cl)c(Cl)c1)N1C2CCC1c1cc(F)ccc1C2 (racemic) [Compound 80]" targetundertest="human recombinant GPR65 (Homo sapiens)" outcomemeasure=pIC50 result="5.30 to 6.30"
compound="O=C(Nc1ccc(Cl)cc1)N1C2CCC1c1cncnc1C2 (racemic) [Compound 49]" targetundertest="human recombinant GPR65 (Homo sapiens)" outcomemeasure=pIC50 result="< 5.30"
compound="O=C(Nc1ccc(Cl)c(Cl)c1)N1[C@@H]2CC[C@H]1c1cnccc1C2 [Compound 112]" targetundertest="human recombinant GPR65 (Homo sapiens)" outcomemeasure=pIC50 result="< 5.30"
compound="O=C(Nc1ccc(Cl)c(Cl)c1)N1[C@@H]2CC[C@H]1c1ccncc1C2 [Compound 107]" targetundertest="human recombinant GPR65 (Homo sapiens)" outcomemeasure=pIC50 result="< 5.30"
compound="O=C(Nc1ccc(Cl)c(Cl)c1)N1C2CCC1c1ccc(O)cc1C2 (racemic) [Compound 57]" targetundertest="human recombinant GPR65 (Homo sapiens)" outcomemeasure=pIC50 result="5.30 to 6.30"
compound="N#Cc1ccc(NC(=O)N2C3CCC2c2cncnc2C3)cc1Cl (racemic) [Compound 11]" targetundertest="human recombinant GPR65 (Homo sapiens)" outcomemeasure=pIC50 result="5.30 to 6.30"
compound="O=C(Nc1ccc(C(F)(F)F)cc1)N1C2CCC1c1cncnc1C2 (racemic) [Compound 1]" targetundertest="human recombinant GPR65 (Homo sapiens)" outcomemeasure=pIC50 result="5.30 to 6.30"
compound="O=C(Nc1ccc(Cl)c(Cl)c1)N1C2CCC1c1cnc(F)c(F)c1C2 (racemic) [Compound 135]" targetundertest="human recombinant GPR65 (Homo sapiens)" outcomemeasure=pIC50 result="5.30 to 6.30"

Look up and report measured pIC50 for this entry: O=C(Nc1ccc(Cl)c(Cl)c1)N1C2CCC1C(F)c1ncncc12 (racemic) [Compound 113]
5.30 to 6.30

Look up and report measured pIC50 for this entry: O=C(Nc1ccc(Cl)c(C(F)(F)F)c1)N1C2CCC1c1ccccc1C2 (racemic) [Compound 55]
5.30 to 6.30

Look up and report measured pIC50 for this entry: O=C(Nc1ccc(C(F)(F)F)c(Cl)c1)N1[C@@H]2CC[C@H]1c1cncnc1C2 [Compound 39]
< 5.30

Look up and report measured pIC50 for this entry: O=C(Nc1ccc(Cl)c(Cl)c1)N1[C@@H]2CC[C@H]1[C@H](F)c1ncncc12 [Compound 115]
5.30 to 6.30

Look up and report measured pIC50 for this entry: O=C(Nc1ccc(-c2cscn2)cc1)N1[C@H]2CC[C@@H]1c1ccnc(F)c1C2 [Compound 186]
5.30 to 6.30

Look up and report measured pIC50 for this entry: O=C(Nc1ccc(Cl)c(Cl)c1)N1C2CCC1c1cc(F)ncc1C2 (racemic) [Compound 69]
5.30 to 6.30

Look up and report measured pIC50 for this entry: O=C(Nc1ccc(C(F)(F)F)c(Cl)c1)N1C2CCC1c1c[nH]c(=O)nc1C2=NO (racemic) [Compound 47]
5.30 to 6.30

Look up and report measured pIC50 for this entry: O=C(Nc1ccc(C(F)(F)F)c(Cl)c1)N1C2CCC1c1ccc(Cl)cc1C2 (racemic) [Compound 71]
5.30 to 6.30

Look up and report measured pIC50 for this entry: O=C(Nc1ccc(Cl)c(Cl)c1)N1C2CCC1c1cnc(Br)cc1C2 (racemic) [Compound 99]
< 5.30

Look up and report measured pIC50 for this entry: COc1cc(NC(=O)N2C3CCC2c2ccnc(F)c2C3)ccc1-c1cnco1 (racemic) [Compound 152]
5.30 to 6.30

Look up and report measured pIC50 for this entry: O=C(Nc1ccc(C(F)(F)F)c(Cl)c1)N1C2CCC1c1cnc(-c3ccccc3)nc1C2 (racemic) [Compound 29]
5.30 to 6.30

Look up and report measured pIC50 for this entry: O=C(Nc1ccc(F)c(F)c1)N1C2CCC1c1cncnc1C2 (racemic) [Compound 6]
< 5.30

Look up and report measured pIC50 for this entry: O=C(Nc1ccc(Cl)c(Cl)c1)N1C2CCC1c1ccccc1C2 (racemic) [Compound 34]
5.30 to 6.30

Look up and report measured pIC50 for this entry: CC(C)(C)Nc1cc2c(cn1)CC1CCC2N1C(=O)Nc1ccc(Cl)c(Cl)c1 (racemic) [Compound 66]
5.30 to 6.30

Look up and report measured pIC50 for this entry: O=C(Nc1ccc(Cl)c(Cl)c1)N1C2CCC1c1c[n+]([O-])ccc1C2 (racemic) [Compound 59]
< 5.30

Look up and report measured pIC50 for this entry: O=C(Nc1cccc(Cl)c1)N1C2CCC1c1cncnc1C2 (racemic) [Compound 50]
< 5.30

Look up and report measured pIC50 for this entry: O=C(Nc1cc(Cl)ccc1F)N1C2CCC1c1cncnc1C2 (racemic) [Compound 51]
5.30 to 6.30

Look up and report measured pIC50 for this entry: O=C(Nc1ccc(Cl)c(Cl)c1)N1C2CCC1c1cnc(-c3ccccc3)nc1C2 (racemic) [Compound 26]
5.30 to 6.30

Look up and report measured pIC50 for this entry: O=C(Nc1ccc(Cl)c(Cl)c1)N1C2CCC1c1cnccc1C2 (racemic) [Compound 104]
5.30 to 6.30

Look up and report measured pIC50 for this entry: O=C(Nc1ccc(Cl)c(Cl)c1)N1[C@@H]2CC[C@H]1c1c[nH]c(=O)nc1C2 [Compound 105]
< 5.30

Look up and report measured pIC50 for this entry: Nc1cc2c(cn1)C1CCC(C2)N1C(=O)Nc1ccc(Cl)c(Cl)c1 (racemic) [Compound 62]
< 5.30

Look up and report measured pIC50 for this entry: O=C(Nc1cc(Cl)c(C(F)(F)F)cc1F)N1C2CCC1c1cnc(F)c(F)c1C2 (racemic) [Compound 136]
5.30 to 6.30

====

- targetUnderTest: human recombinant GPR65 (Homo sapiens)
- Construct: host or cells: 1321N1 human astrocytoma cells (1321N1-hrGPR65)
- procedureDetails: Human GPR65 cAMP HTRF antagonist assay
- Assay type: cell-based
Below: a set of entries, each annotated with reported IC50.

These solved cases illustrate the format of a correct answer.
compound="O=C(Nc1ccc(Cl)cc1F)N1C2CCC1c1ccnc(F)c1C2 (racemic) [Compound 177]" result="< 500 nM"
compound="O=C(Nc1cc(Cl)c(Br)cc1F)N1[C@H]2CC[C@@H]1c1c[nH]c(=O)cc1C2 [Compound 141]" result="< 500 nM"

Look up and report measured IC50 for this entry: O=C(Nc1cc(Br)c(C(F)(F)F)cc1F)N1[C@H]2CC[C@@H]1c1c[nH]c(=O)cc1C2 [Compound 144]
< 500 nM

Look up and report measured IC50 for this entry: O=C(Nc1cc(Cl)c(Cl)cc1F)N1[C@H]2CC[C@@H]1c1c[nH]c(=O)cc1C2 [Compound 94]
< 500 nM

Look up and report measured IC50 for this entry: O=C(Nc1ccc(C(F)(F)F)c(Cl)c1)N1[C@H]2CC[C@@H]1c1c[nH]c(=O)nc1C2 [Compound 43]
< 500 nM

====

- targetUnderTest: human recombinant GPR65 (Homo sapiens, UniProt Q8IYL9)
- Construct: host or cells: 1321N1 human astrocytoma cells (1321N1-hrGPR65)
- Sequence (Q8IYL9 whole entry): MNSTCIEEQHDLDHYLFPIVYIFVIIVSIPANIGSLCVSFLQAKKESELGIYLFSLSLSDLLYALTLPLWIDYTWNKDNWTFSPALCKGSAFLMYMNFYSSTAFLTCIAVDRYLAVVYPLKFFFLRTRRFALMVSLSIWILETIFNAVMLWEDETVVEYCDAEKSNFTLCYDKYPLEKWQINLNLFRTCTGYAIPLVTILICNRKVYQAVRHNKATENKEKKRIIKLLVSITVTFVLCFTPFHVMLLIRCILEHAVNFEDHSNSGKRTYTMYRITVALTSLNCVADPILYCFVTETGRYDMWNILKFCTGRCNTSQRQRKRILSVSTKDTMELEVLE
- procedureDetails: Human GPR65 cAMP HTRF antagonist assay
- Format: cell-based
- experimentalConditions: 1321N1-hrGPR65 cells, assay pH 7.2, cAMP HTRF; read-out: hGPR65 IC50 (activity class)
pIC50: −log10 of the molar value.
Below: a set of entries, each annotated with reported pIC50.

compound="O=C(Nc1ccc(Cl)c(C(F)(F)F)c1)N1C2CCC1c1cnc(-c3ccccc3)nc1C2 (racemic)" result="< 5.30"
compound="N#Cc1ccc(NC(=O)N2C3CCC2c2cncnc2C3)cc1Br (racemic)" result="< 5.30"
compound=O=C(Nc1ccc(-n2cccn2)cc1)N1[C@H]2CC[C@@H]1c1ccnc(F)c1C2 result="5.30 to 6.30"
compound="O=C(Nc1cc(C(F)(F)F)cc(C(F)(F)F)c1)N1C2CCC1c1ccnc(F)c1C2 (racemic)" result="5.30 to 6.30"
compound="O=C(Nc1cc(Cl)c(Cl)cc1F)N1C2CCC1c1cnc(F)c(F)c1C2 (racemic)" result="5.30 to 6.30"

Specify the recorded pIC50 for O=C(Nc1ccc(F)c(C(F)(F)F)c1)N1C2CCC1c1cncnc1C2 (racemic) , system: human recombinant GPR65 (Homo sapiens, UniProt Q8IYL9).
< 5.30

Specify the recorded pIC50 for O=C(Nc1ccc(Cl)c(C(F)(F)F)c1)N1C2CCC1c1cncnc1C2 (racemic) , system: human recombinant GPR65 (Homo sapiens, UniProt Q8IYL9).
5.30 to 6.30

Specify the recorded pIC50 for O=C(Nc1ccc(C(F)(F)F)c(Cl)c1)N1C2CCC1c1cnccc1C2 (racemic) , system: human recombinant GPR65 (Homo sapiens, UniProt Q8IYL9).
5.30 to 6.30
